# RUN CONDITIONS: in isobutanol, 288.15 K

{"columns": ["GIVEN SMILES", "solubility (mole fraction)"],
 "data": [
  ["N#Cc1cccc([N+](=O)[O-])c1C#N", 0.000477]
]}

###

# RUN CONDITIONS: in water, 288.15 K

{"columns": ["GIVEN SMILES", "solubility (mole fraction)"],
 "data": [
  ["N#Cc1cccc([N+](=O)[O-])c1C#N", "7.98e-05"]
]}

###

# RUN CONDITIONS: in ethanol, 303.15 K

{"columns": ["GIVEN SMILES", "solubility (mole fraction)"],
 "data": [
  ["N#Cc1cccc([N+](=O)[O-])c1C#N", 0.00232]
]}

###

# RUN CONDITIONS: in methanol, 278.15 K

{"columns": ["GIVEN SMILES", "solubility (mole fraction)"],
 "data": [
  ["N#Cc1cccc([N+](=O)[O-])c1C#N", 0.00203]
]}

###

# RUN CONDITIONS: in ethylene glycol, 288.15 K

{"columns": ["GIVEN SMILES", "solubility (mole fraction)"],
 "data": [
  ["N#Cc1cccc([N+](=O)[O-])c1C#N", 0.019]
]}

###

# RUN CONDITIONS: in acetone, 323.15 K

{"columns": ["GIVEN SMILES", "solubility (mole fraction)"],
 "data": [
  ["N#Cc1cccc([N+](=O)[O-])c1C#N", 0.0929]
]}

###

# RUN CONDITIONS: in NMP, 318.15 K
QUANTITY: solubility (mole fraction)

{"columns": ["GIVEN SMILES", "QUANTITY", "TEST VALUE"],
 "data": [
  ["N#Cc1cccc([N+](=O)[O-])c1C#N", "solubility (mole fraction)", 0.186]
]}

###

# RUN CONDITIONS: in ethanol, 288.15 K

{"columns": ["GIVEN SMILES", "solubility (mole fraction)"],
 "data": [
  ["N#Cc1cccc([N+](=O)[O-])c1C#N", 0.00134]
]}

###

# RUN CONDITIONS: in n-propanol, 308.15 K

{"columns": ["GIVEN SMILES", "solubility (mole fraction)"],
 "data": [
  ["N#Cc1cccc([N+](=O)[O-])c1C#N", 0.00226]
]}

###

# RUN CONDITIONS: in ethanol, 283.15 K

{"columns": ["GIVEN SMILES", "solubility (mole fraction)"],
 "data": [
  ["N#Cc1cccc([N+](=O)[O-])c1C#N", 0.00111]
]}

###

# RUN CONDITIONS: in acetone, 318.15 K
QUANTITY: solubility (mole fraction)

{"columns": ["GIVEN SMILES", "TEST VALUE"],
 "data": [
  ["N#Cc1cccc([N+](=O)[O-])c1C#N", 0.0783]
]}

###

# RUN CONDITIONS: in ethanol, 293.15 K

{"columns": ["GIVEN SMILES", "solubility (mole fraction)"],
 "data": [
  ["N#Cc1cccc([N+](=O)[O-])c1C#N", 0.0016]
]}

###

# RUN CONDITIONS: in methanol, 293.15 K

{"columns": ["GIVEN SMILES", "solubility (mole fraction)"],
 "data": [
  ["N#Cc1cccc([N+](=O)[O-])c1C#N", 0.00332]
]}
